- Molecule: "CC1CCCC(C)(C)C1 (stereo not drawn)"
  boiling point: "137 °C"
- Molecule: "Clc1ccccc1-c1ccccc1"
  boiling point: "274 °C"
- Molecule: "C=CCOCC=C"
  boiling point: "94 °C"

----------
melting point by entry:
Assay metric: melting point (°C)

- Smiles notation: "Oc1c(F)cccc1F"
  Assay metric: "melting point"
  Units label: "°C"
  Meas value: 39.5
- Smiles notation: "Cc1ccccc1Oc1ccccc1[N+](=O)[O-]"
  Assay metric: "melting point"
  Units label: "°C"
  Meas value: 39.5
- Smiles notation: "CCC(C)(CO)CO"
  Assay metric: "melting point"
  Units label: "°C"
  Meas value: 40.3
- Smiles notation: "Oc1ccc(C2CCCCC2)cc1Cl"
  Assay metric: "melting point"
  Units label: "°C"
  Meas value: 40.5
